target: human Gastric Inhibitory Peptide Receptor (human) (UniProt P48546); test: FACS competition with GIP-057 on CHO-K1-hGIPR cells; pIC50 category B: 7.1-8.0
Sequence (P48546 22-466 limits assumed): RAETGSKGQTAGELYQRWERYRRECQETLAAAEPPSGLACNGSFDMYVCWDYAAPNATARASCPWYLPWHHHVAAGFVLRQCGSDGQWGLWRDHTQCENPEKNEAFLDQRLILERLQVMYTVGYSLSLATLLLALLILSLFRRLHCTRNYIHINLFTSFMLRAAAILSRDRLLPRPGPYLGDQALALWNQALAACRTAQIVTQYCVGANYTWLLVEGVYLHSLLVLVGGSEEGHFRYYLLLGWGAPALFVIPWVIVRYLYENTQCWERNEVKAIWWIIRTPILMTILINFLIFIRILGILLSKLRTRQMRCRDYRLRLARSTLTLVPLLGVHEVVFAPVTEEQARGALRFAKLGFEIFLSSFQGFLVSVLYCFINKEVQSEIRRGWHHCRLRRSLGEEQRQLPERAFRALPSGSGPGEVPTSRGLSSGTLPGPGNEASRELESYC
*1 amine or outer side, *2 acyl side, *3 side chain or, on linkers, in order; H or OH if unused. Bridges are numbered along the chain shown (N, C = ends). Primed or numbered codes have the meaning given here. Where no end group is shown, it is not given here. [ ]: non-standard residue; d: D form. The star is where a group is joined. APAc″ = 4-amino-1-carboxymethylpiperidine, NC1CCN(CC(=O)*)CC1; dE(AGLU) = D-glutamic acid bearing 1-amino-1-deoxy-D-glucitol; Pro(trans-4-NH2) = O=C([C@@H]1C[C@@H](N[*:3])CN1[*:1])[*:2]; DOTA = O=C(O)CN1CCN(CC(=O)O)CCN(CC(=O)*)CCN(CC(=O)O)CC1; Trp(5-Cl) = N[C@@H](Cc1c[nH]c2ccc(Cl)cc12)C(=O)O; Pyridine(2,6-diCH2) = c1cc(C[*:1])nc(C[*:2])c1; APAc = 4-amino-1-carboxymethylpiperidine; Glutaryl = O=C(CCCC(=O)[*:2])[*:1]; AGLU = 1-amino-1-deoxy-D-glucitol; Hyp = O=C(O)[C@@H]1C[C@@H](O)CN1; Api = NC1(C(=O)O)CCNCC1
Entries and their measured pIC50 follow.
measurement-kind: pIC50

• {AGLU-Glutaryl-APAc″}-DW[Trp(5-Cl)][Hyp]E[dL]C[Api](DOTA)LIC (linker 7-11 via Pyridine(2,6-diCH2); not fully specified (C-terminus)) [AGLU-Glutar-APAc-Asp-Trp-5Clw-Hyp-Glu-leu-[Cys(2Lut)-Apc(DOTA)-Leu-Ile-Cys]-lys(MeO36PEG)-NH2] = 7.1 to 8 pic50
• {AGLU-Glutaryl}-DW[Trp(5-Cl)][Pro(trans-4-NH2)]E[dL]C[dK](DOTA)LIC-{APAc-dE(AGLU)-NH2} (linker 7-11 via Pyridine(2,6-diCH2)) [AGLU-Glutar-Asp-Trp-5Clw-Tap-Glu-leu-[Cys(2Lut)-lys(DOTA)-Leu-Ile-Cys]-APAc-glu(AGLU)-NH2] = 7.1 to 8 pic50
